Test system: 496974-208-R-J2-PDC complex spheroids, growth % test/control
Assay: Anticancer human tumor 496974-208-R-J2-PDC patient-derived pancreatic carcinoma cell line growth inhibition [CLK]; active = viability on the fitted dose curve at most 10% of control; inactive = the rest
Conditions: second compound 10 µM; first compound 0.1 µM
Outcome (select one): active, inactive

Assay outcome for C=CC(=O)N1CCN(c2nc(=O)n(-c3c(C)ccnc3C(C)C)c3nc(-c4c(O)cccc4F)c(F)cc23)C(C)C1 (centres undefined) + CNC(=O)c1ccc(Nc2nc(OC3CCCC3)c3c(-c4ccc5nc(C)oc5c4)c[nH]c3n2)c(OC)c1 : what was it? inactive

What is the recorded call for this molecule in the test? COC1C=CCC(C)C(C)S(=O)(=O)NC(=O)c2ccc3c(c2)N(CC2CCC21)CC1(CCCc2cc(Cl)ccc21)CO3 (centres undefined) + CN1CCN(c2cc(C(=O)Nc3cc4cc(-c5cnn(C)c5)ccc4cn3)ccn2)CC1 active

Can you look up the reported call for Nc1ccccc1NC(=O)c1ccc(CNC(=O)OCc2cccnc2)cc1 + CNC(=O)c1ccc(Nc2nc(OC3CCCC3)c3c(-c4ccc5nc(C)oc5c4)c[nH]c3n2)c(OC)c1 for me? inactive

I'd appreciate the recorded outcome for Cn1ncnc1[C@H]1c2n[nH]c(=O)c3cc(F)cc(c23)N[C@@H]1c1ccc(F)cc1 + CNC(=O)c1ccc(Nc2nc(OC3CCCC3)c3c(-c4ccc5nc(C)oc5c4)c[nH]c3n2)c(OC)c1 from this test. inactive

Name the outcome recorded for CC(CO)NC(=O)c1cc(-c2ccc(Cl)cc2)nn(-c2cnn(C)c2)c1=O (centres undefined) + CNC(=O)c1ccc(Nc2nc(OC3CCCC3)c3c(-c4ccc5nc(C)oc5c4)c[nH]c3n2)c(OC)c1 in the assay. inactive

What did this assay record as the result for Nc1ccccc1NC(=O)c1ccc(CNC(=O)OCc2cccnc2)cc1 + CN1CCN(c2cc(C(=O)Nc3cc4cc(-c5cnn(C)c5)ccc4cn3)ccn2)CC1 ? active

Look up the recorded call for C=C(F)C(=O)N1CCN(c2nc(OCC3CCCN3C)nc3c2CCN(c2cccc4cccc(Cl)c24)C3)CC1CC#N (centres undefined) + CNC(=O)c1ccc(Nc2nc(OC3CCCC3)c3c(-c4ccc5nc(C)oc5c4)c[nH]c3n2)c(OC)c1 in this test. inactive

Hi team, can someone confirm the assay call for CCCS(=O)(=O)Nc1ccc(F)c(C(=O)c2c[nH]c3ncc(-c4ccc(Cl)cc4)cc23)c1F + CNC(=O)c1ccc(Nc2nc(OC3CCCC3)c3c(-c4ccc5nc(C)oc5c4)c[nH]c3n2)c(OC)c1 ? inactive

###

Test system: 496974-208-R-J2-PDC complex spheroids, growth % test/control
Test: Anticancer human tumor 496974-208-R-J2-PDC cell line growth inhibition [CLK]; active means viability on the fitted dose curve at most 10% of control; inactive means the rest;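 also: spheroids exposed to the drugs for 7 days before readout; 100% = DMSO vehicle control wells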
Settings: second compound 10 µM; first compound 0.01 µM
Response enum: 1 for active, -1 for inactive

MOLECULE	TGT	CAT
COc1c(OCCCN2CCOCC2)ccc2c3n(c(=NC(=O)c4cnc(N)nc4)nc12)CCN3 + CN1CCN(c2cc(C(=O)Nc3cc4cc(-c5cnn(C)c5)ccc4cn3)ccn2)CC1	496974-208-R-J2-PDC complex spheroids, growth % test/control	1
Cn1ncnc1[C@H]1c2n[nH]c(=O)c3cc(F)cc(c23)N[C@@H]1c1ccc(F)cc1 + CN1CCN(c2cc(C(=O)Nc3cc4cc(-c5cnn(C)c5)ccc4cn3)ccn2)CC1	496974-208-R-J2-PDC complex spheroids, growth % test/control	1
CCc1c2c(nc3ccc(O)cc13)-c1cc3c(c(=O)n1C2)COC(=O)[C@]3(O)CC + CN1CCN(c2cc(C(=O)Nc3cc4cc(-c5cnn(C)c5)ccc4cn3)ccn2)CC1	496974-208-R-J2-PDC complex spheroids, growth % test/control	1
COc1c(OCCCN2CCOCC2)ccc2c3n(c(=NC(=O)c4cnc(N)nc4)nc12)CCN3 + CNC(=O)c1ccc(Nc2nc(OC3CCCC3)c3c(-c4ccc5nc(C)oc5c4)c[nH]c3n2)c(OC)c1	496974-208-R-J2-PDC complex spheroids, growth % test/control	-1

Below: the item to evaluate.
Given CCN1CCN(Cc2ccc(Nc3ncc(F)c(-c4cc(F)c5nc(C)n(C(C)C)c5c4)n3)nc2)CC1 + CN1CCN(c2cc(C(=O)Nc3cc4cc(-c5cnn(C)c5)ccc4cn3)ccn2)CC1 , state the outcome it received in this test. 1
